testSystem: Delta-type opioid receptor (Homo sapiens) (UniProt P41143)
Sequence (P41143 whole entry): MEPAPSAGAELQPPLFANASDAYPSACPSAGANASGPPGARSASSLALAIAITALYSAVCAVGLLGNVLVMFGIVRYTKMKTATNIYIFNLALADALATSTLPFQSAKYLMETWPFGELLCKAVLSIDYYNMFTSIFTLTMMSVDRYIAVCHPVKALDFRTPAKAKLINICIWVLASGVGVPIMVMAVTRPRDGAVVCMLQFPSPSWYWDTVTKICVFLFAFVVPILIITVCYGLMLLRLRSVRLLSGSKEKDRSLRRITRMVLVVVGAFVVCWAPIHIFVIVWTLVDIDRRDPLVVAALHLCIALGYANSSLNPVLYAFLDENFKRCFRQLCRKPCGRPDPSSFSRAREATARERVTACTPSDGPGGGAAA
runDescription: Antagonist activity at delta opioid receptor (unknown origin) expressed in membranes assessed as inhibition of DPDPE-induced GTP-gamma-[35S] binding after 4 hrs by micro beta scintillation counting analysis
Known Kb of a selection of compounds
metric: Kb (nM)

Cc1ccccc1CNCCc1ccc(Oc2ccc(C(N)=O)cn2)c(Cl)c1: 8.9
CC(C)CCNCc1ccc(Oc2ccc(C(N)=O)cn2)cc1: 4.4
NC(=O)c1ccc(Oc2ccc(CCNCc3cccc(Cl)c3)cc2Cl)nc1: 30.1
NC(=O)c1ccc(Oc2ccc(CCNCc3ccccc3)cc2Cl)nc1: 17.5
NC(=O)c1ccc(Oc2ccc(CCNCc3cccc(F)c3)cc2Cl)nc1: 5.78
NC(=O)c1ccc(Oc2ccc(CNCCc3cccs3)cc2)nc1: 0.708
NC(=O)c1ccc(Oc2ccc(CNCCc3cccc(F)c3)cc2)nc1: 0.677

----------
System: Rattus norvegicus
runDescription: Ex vivo inhibition of [3H]-Diprenophine binding to delta opioid receptor in striatum/nucleus accumbens isolated from rat treated with compound at 7 mg/kg, po for 6 hrs measured after 30 mins post [3H]-Diprenophine addition to tissue relative to control
Type: functional
metric: inhibition in vivo at 7 mg/kg

C[C@H]1CN(CC[C@H](O)C2CCCCC2)CC[C@@]1(C)c1cccc(O)c1: > 40%
NC(=O)c1ccc(Oc2ccc(CNCCC3CCCC3)cc2)nc1: > 60%
O=C1CC[C@@]2(O)[C@H]3Cc4ccc(O)c5c4[C@@]2(CCN3CC2CC2)[C@H]1O5 [NALTREXONE]: < 40%
CC(C)CCNCc1ccc(Oc2ccc(C(N)=O)cn2)cc1: > 40%
NC(=O)c1ccc(Oc2ccc(CNCCc3cccs3)cc2)nc1: > 40%
CC(C)CCNCc1ccc(Oc2ccc(C(N)=O)cn2)c(F)c1: > 65%
